# melting point per record follows

Answered cases to consult:
| COMPOUND | QUANTITY NAME | OBSERVED MEASUREMENT |
| --- | --- | --- |
| COc1cccc2c1C(=O)N(CSc1ccccc1)S2(=O)=O | melting point | 152 to 154 °C |
| CC(=Cc1ccc(C)cc1)COc1cc(C)c(NC=O)c(C)c1C | melting point | 167 to 169 °C |
| Cc1c(C)c(N2Cc3ccccc3C2)c(C)c2c1OC(C)(C)C2c1ccccc1 (stereo not given) | melting point | 164 to 166 °C |
| CC(=O)SCC12CCC3(CC1=CCC1C2CCC2(C)C(C(C)=O)CCC12)OCCO3 (stereo not given) | melting point | 151 to 153 °C |

Continue with the compound presented below.
Entry CCC(COCc1ccc(C#N)cc1)n1cnc2c(N)nc3ccccc3c21 (stereo not given) ; melting point = 160 to 161 °C
